# selectivity ratio annotations
# test description: Selectivity index, ratio of IC50 for human KB cells to IC50 for chloroquine-sensitive Plasmodium falciparum FCA 20 Ghana
# Assay type: toxicity, cell-based
# conditions used: KB cells versus Plasmodium falciparum FCA 20 Ghana, read-out: Ratio IC50
# output: bare number, no unit

substance smiles: C/C=C1/CN2[C@@H](C3=C[C@@H]4[C@@H]5N(C3=O)c3ccccc3[C@@]53CCN5C/C(=C/C)[C@@H]4C[C@H]53)C[C@@]34c5ccccc5N5C(=O)CC=C([C@H]1C[C@H]23)[C@H]54
selectivity ratio: 6.8

substance smiles: C/C=C1/CN2CC[C@]34c5ccccc5N5C(=O)C([C@H]6C[C@]78c9ccccc9N9C(=O)C=C[C@@H]([C@H]97)[C@H]7C[C@@H]8N6C/C7=C/C)=C[C@H]([C@H]53)[C@H]1C[C@H]24
selectivity ratio: 0.8

substance smiles: C/C=C1/CN2CCc3c([nH]c4ccccc34)[C@@H]2C[C@@H]1Cc1nccc2c1[nH]c1ccccc12
selectivity ratio: 14.8

With those in mind, consider the next molecule.
Req: I'd like to know its selectivity ratio. The molecule in question is C/C=C1/CN2[C@@H](C3=C[C@@H]4[C@@H]5N(C3=O)c3ccccc3[C@@]53CCN5C/C(=C/CO)[C@@H]4C[C@H]53)C[C@@]34c5ccccc5N5C(=O)CC=C([C@H]1C[C@H]23)[C@H]54
Resp: 19.1

* * *

# Tested on: Plasmodium falciparum
# test description: Antiplasmodial activity against chloroquine-resistant Plasmodium falciparum W2 Indochina by [3H]hypoxanthine uptake
# Assay type: functional, organism-based
measurement type: IC90 (µM)
Write down the numeric answer in µM and omit the unit.

Worked examples, 4 compounds total:
compound: C=C[C@H]1CN2CC[C@H]1C[C@H]2[C@H](O)c1ccnc2ccc(OC)cc12 [QUININE]
IC90 [µM]: 1.72

compound: C/C=C1/CN2[C@@H](C3=C[C@@H]4[C@@H]5N(C3=O)c3ccccc3[C@@]53CCN5C/C(=C/CO)[C@@H]4C[C@H]53)C[C@@]34c5ccccc5N5C(=O)CC=C([C@H]1C[C@H]23)[C@H]54
IC90 [µM]: 1.35

compound: CCN(CC)CCCC(C)Nc1ccnc2cc(Cl)ccc12 (stereo not given) [CHLOROQUINE]
IC90 [µM]: 1.75

compound: C/C=C1/CN2CC[C@]34c5ccccc5N5C(=O)C([C@H]6C[C@]78c9ccccc9N9C(=O)C=C[C@@H]([C@H]97)[C@H]7C[C@@H]8N6C/C7=C/C)=C[C@H]([C@H]53)[C@H]1C[C@H]24 [SUNGUCINE]
IC90 [µM]: 33.1

With those in mind, consider the next compound.
Req: I'd like to know its IC90. The compound in question is C/C=C1/CN2[C@@H](C3=C[C@@H]4[C@@H]5N(C3=O)c3ccccc3[C@@]53CCN5C/C(=C/C)[C@@H]4C[C@H]53)C[C@@]34c5ccccc5N5C(=O)CC=C([C@H]1C[C@H]23)[C@H]54 [ISOSUNGUCINE]
Resp: 1.72

* * *

# selectivity ratio annotations
# test description: Selectivity index, ratio of IC50 for human KB cells to IC50 for chloroquine-resistant Plasmodium falciparum W2 Indochina
# Assay type: toxicity, cell-based
# conditions used: KB cells versus Plasmodium falciparum W2 Indochina, read-out: Ratio IC50
# output: bare number, no unit

compound: C/C=C1/CN2[C@@H](C3=C[C@@H]4[C@@H]5N(C3=O)c3ccccc3[C@@]53CCN5C/C(=C/CO)[C@@H]4C[C@H]53)C[C@@]34c5ccccc5N5C(=O)CC=C([C@H]1C[C@H]23)[C@H]54
observed measurement: 116
--
compound: C/C=C1/CN2CCc3c([nH]c4ccccc34)[C@@H]2C[C@@H]1Cc1nccc2c1[nH]c1ccccc12 [USAMBARENSINE]
observed measurement: 36.6

Req: I'd like to know its selectivity ratio. The compound in question is C/C=C1/CN2[C@@H](C3=C[C@@H]4[C@@H]5N(C3=O)c3ccccc3[C@@]53CCN5C/C(=C/C)[C@@H]4C[C@H]53)C[C@@]34c5ccccc5N5C(=O)CC=C([C@H]1C[C@H]23)[C@H]54 [ISOSUNGUCINE]
Resp: 34

Req: I'd like to know its selectivity ratio. The compound in question is C/C=C1/CN2CC[C@]34c5ccccc5N5C(=O)C([C@H]6C[C@]78c9ccccc9N9C(=O)C=C[C@@H]([C@H]97)[C@H]7C[C@@H]8N6C/C7=C/C)=C[C@H]([C@H]53)[C@H]1C[C@H]24 [SUNGUCINE]
Resp: 0.6
